Every entry's value here was drawn from the kinase profiling compilation of Christmann-Franck et al. (2016).

Test system: ABL1 (human), P00519 [Y253F]
Experiment: KINOMEscan competition binding
Details: compound 10.0 µM
experimental-readout: kinase still bound, per cent of control (%)
Give bare numbers, in %.

molecular-string	kinase still bound, per cent of control (%)
CCN1CCN(Cc2ccc(NC(=O)c3ccc(C)c(Oc4ccnc5[nH]ccc45)c3)cc2C(F)(F)F)CC1	1.1
CCOc1cc(N2CCC(N3CCCCC3)CC2)ccc1Nc1nc(Nc2ccccc2S(=O)(=O)C(C)C)c2cn[nH]c2n1	61
CCN1CCN(Cc2ccc(NC(=O)c3ccc(C)c(/C=C/c4cnc(Nc5cc(N6CCNCC6)nc(C)n5)cn4)c3)cc2C(F)(F)F)CC1	0.1

Consider now this further compound.
Q: Which kinase still bound, per cent of control is listed for COc1cc(N2CCC(N3CCN(C)CC3)CC2)ccc1Nc1ncc(Cl)c(Nc2ccccc2S(=O)(=O)C(C)C)n1 ?
Result: 4.2
